Tested On: UniProt P05121
Sequence (P05121 24-402): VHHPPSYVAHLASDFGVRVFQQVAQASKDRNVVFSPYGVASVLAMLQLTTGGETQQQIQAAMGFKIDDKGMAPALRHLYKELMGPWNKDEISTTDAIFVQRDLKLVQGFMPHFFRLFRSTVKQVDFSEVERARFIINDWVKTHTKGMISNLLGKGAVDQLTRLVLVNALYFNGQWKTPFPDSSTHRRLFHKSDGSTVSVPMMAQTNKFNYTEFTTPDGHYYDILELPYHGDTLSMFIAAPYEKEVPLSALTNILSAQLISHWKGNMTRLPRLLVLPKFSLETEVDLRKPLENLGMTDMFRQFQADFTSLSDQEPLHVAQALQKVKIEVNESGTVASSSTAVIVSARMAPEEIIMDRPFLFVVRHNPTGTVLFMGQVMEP
Assay Procedure: PAI-1 inhibition in the S2251 chromogenic substrate assay (PAI functional assay)
Assay type: biochemical
Test Settings: 20 μM; Table 1, second part; read-out: INHIBITION OF PAI-1 (degree of inhibition)
Returns Fulfilled if the recorded inhibition at 20 µM is greater than or equal to 50%, and Not fulfilled otherwise.

compound=CN(C)CCOc1ccc(/C=c2\[nH]c(=O)/c(=C/c3ccsc3)[nH]c2=O)cc1 label=Fulfilled
compound=COc1cc2c(cc1OC)CN(CCc1ccc(NC(=O)c3ccc(/C=c4\[nH]c(=O)/c(=C/c5ccccc5)[nH]c4=O)cc3)cc1)CC2 label=Fulfilled
compound=CN(C)CCSCc1ccc(/C=c2\[nH]c(=O)/c(=C/c3ccoc3)[nH]c2=O)cc1 label="Not fulfilled"
compound=CN(C)CCSCc1ccc(/C=c2\[nH]c(=O)/c(=C/c3ccsc3)[nH]c2=O)cc1 label="Not fulfilled"
compound="O=c1[nH]/c(=C\\c2ccc(OCC(O)CN3CCOCC3)cc2)c(=O)[nH]/c1=C\\c1ccccc1 (stereo not drawn)" label="Not fulfilled"
compound="CN(C)CC(O)COc1ccc(/C=c2\\[nH]c(=O)/c(=C/c3ccccc3)[nH]c2=O)cc1 (stereo not drawn)" label=Fulfilled
compound=CN(C)CCOc1csc(/C=c2\[nH]c(=O)/c(=C/c3ccccc3)[nH]c2=O)c1 label="Not fulfilled"
compound=CN(C)CCOCCOc1ccc(/C=c2\[nH]c(=O)/c(=C/c3ccccc3)[nH]c2=O)s1 label=Fulfilled
